Molecular target: rat GPR14 (U-II receptor) (Rattus norvegicus, UniProt P49684)
Construct: expressed in transfected cells
Sequence (P49684 1-386): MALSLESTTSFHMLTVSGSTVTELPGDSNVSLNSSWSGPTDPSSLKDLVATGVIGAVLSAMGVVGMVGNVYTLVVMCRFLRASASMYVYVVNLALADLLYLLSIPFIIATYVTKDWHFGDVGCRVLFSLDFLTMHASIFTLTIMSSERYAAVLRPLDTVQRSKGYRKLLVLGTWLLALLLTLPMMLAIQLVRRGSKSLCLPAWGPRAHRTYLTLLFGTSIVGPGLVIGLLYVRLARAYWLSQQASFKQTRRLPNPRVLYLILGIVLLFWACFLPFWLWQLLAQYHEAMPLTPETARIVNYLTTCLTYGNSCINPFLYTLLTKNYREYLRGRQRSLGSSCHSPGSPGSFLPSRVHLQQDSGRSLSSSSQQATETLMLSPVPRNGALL
Test: Rat UII Calcium Mobilization FLIPR Assay
Assay type: cell-based
Conditions: average value for the compound tested; read-out: Rat UII FLIPR Average IC50
PROPERTY_MEASURED: pIC50
Please report pIC50 as the negative decimal logarithm of the molar concentration, giving only the number.

A selection of reference data follows.
• CCOCCC(=O)NCCC[C@H](c1ccc(OC)c(OC)c1)N1C(=O)c2cccc(N3CCN([C@H](C)c4ccccc4)CC3)c2C1=O [Cpd 189] = 8.07
• COc1ccc(C(CCCNS(=O)(=O)c2sc(NC(C)=O)nc2C)N2C(=O)c3cccc(N4CCN([C@H](C)c5ccccc5)CC4)c3C2=O)cc1OC (some centres unmarked) [Cpd 97] = 7.20
• COc1ccc([C@@H](CCCNC(=O)c2cc(C)[nH]c2C)N2C(=O)c3cccc(N4CCN([C@H](C)c5ccccc5)CC4)c3C2=O)cc1OC [Cpd 188] = 7.70

pIC50 measured on COc1ccc([C@@H](CCCNC(=O)c2cncn2C)N2C(=O)c3cccc(N4CCN([C@H](C)c5ccccc5)CC4)c3C2=O)cc1OC [Cpd 152] = 7.77
